Target: Peregrin (Homo sapiens) (UniProt P55201)
Sequence (whole entry): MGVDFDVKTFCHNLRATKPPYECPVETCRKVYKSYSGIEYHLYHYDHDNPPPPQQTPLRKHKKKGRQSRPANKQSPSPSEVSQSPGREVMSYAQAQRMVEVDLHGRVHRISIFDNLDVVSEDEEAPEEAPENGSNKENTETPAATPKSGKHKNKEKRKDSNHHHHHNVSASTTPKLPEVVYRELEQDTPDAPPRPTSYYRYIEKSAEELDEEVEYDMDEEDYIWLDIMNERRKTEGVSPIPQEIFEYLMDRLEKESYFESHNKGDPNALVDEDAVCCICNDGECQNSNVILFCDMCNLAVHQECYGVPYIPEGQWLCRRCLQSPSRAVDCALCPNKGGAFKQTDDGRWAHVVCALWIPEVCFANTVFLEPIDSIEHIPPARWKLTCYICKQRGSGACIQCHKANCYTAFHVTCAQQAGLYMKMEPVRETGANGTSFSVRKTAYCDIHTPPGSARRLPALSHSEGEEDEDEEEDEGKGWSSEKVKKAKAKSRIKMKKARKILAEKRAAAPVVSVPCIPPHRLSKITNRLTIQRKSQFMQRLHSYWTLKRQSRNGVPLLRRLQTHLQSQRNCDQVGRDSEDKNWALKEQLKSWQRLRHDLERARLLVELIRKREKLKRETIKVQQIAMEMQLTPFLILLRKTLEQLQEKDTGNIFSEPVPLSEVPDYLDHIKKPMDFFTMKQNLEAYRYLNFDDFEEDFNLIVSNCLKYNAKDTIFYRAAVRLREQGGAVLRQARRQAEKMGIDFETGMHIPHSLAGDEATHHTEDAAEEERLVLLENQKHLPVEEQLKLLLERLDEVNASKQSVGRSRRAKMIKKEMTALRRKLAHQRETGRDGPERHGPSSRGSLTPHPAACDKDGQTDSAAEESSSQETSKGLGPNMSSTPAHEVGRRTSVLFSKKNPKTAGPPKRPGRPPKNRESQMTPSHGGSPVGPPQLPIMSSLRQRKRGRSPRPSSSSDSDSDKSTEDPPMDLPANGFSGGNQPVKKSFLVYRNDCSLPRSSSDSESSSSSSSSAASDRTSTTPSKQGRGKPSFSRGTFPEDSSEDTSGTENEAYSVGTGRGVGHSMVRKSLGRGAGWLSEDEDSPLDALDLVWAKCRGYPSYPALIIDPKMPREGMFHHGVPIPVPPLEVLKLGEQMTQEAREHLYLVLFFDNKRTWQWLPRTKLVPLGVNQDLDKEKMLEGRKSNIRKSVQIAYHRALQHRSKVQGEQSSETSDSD
Conditions: Compound concentration 20.0 uM, Protein concentration 2.0 uM, Result type QC Liability
property_measured: ΔTm (°C)
Numbers only, in °C.

Guide cases for ΔTm, answers given:
CN(C(=O)CCOCCOCCOCCOCCNc1cccc2c1C(=O)N(C1CCC(=O)NC1=O)C2=O)[C@H]1CC[C@@]2(C)[C@@H](CC[C@@H]3[C@@H]2CC[C@]2(C)[C@@H](c4ccc5ccncc5c4)CC[C@@H]32)C1 (stereo partly drawn)
3.76
O=C(O)c1ccc(CN2C[C@@H]3C[C@H]2CN3Cc2ccc(Oc3ccc(-c4ncco4)cc3)cc2)cc1
-2.16
CC(C)c1cnc(NC(=O)Cc2ccccc2)s1
0.11
CCCc1c(OCCCOc2ccc(OCC(=O)O)cc2)ccc(C(C)=O)c1O
-1.78
COc1ccc(OC(=O)N(CC(=O)O)Cc2ccc(OCCc3nc(-c4ccccc4)oc3C)cc2)cc1
-1.99

For the 3 compounds below, give their ΔTm values.
1. Cc1nn(C)c(COc2ccc(N3CCN(S(=O)(=O)N(C)C)CC3)cc2)c1-c1cccc2c(CCCOc3cccc4ccccc34)c(C(=O)O)n(CCN3CCOCC3)c12
2. C[C@@H]1CC(=O)N(C2CC2)N=C1c1ccc(NC(=O)N2Cc3ccncc3C2)cc1
3. Cc1cc(-c2cc3ncccc3c(OC[C@H]3CCCNC3)n2)ccc1N(C)C

1. -2.4
2. -2.03
3. -1.71

----------
For each entry below, report its ΔTm value.
Target: Fibroblast growth factor receptor 3 (Homo sapiens) (UniProt P22607)
Sequence (P22607 23-806 limits assumed): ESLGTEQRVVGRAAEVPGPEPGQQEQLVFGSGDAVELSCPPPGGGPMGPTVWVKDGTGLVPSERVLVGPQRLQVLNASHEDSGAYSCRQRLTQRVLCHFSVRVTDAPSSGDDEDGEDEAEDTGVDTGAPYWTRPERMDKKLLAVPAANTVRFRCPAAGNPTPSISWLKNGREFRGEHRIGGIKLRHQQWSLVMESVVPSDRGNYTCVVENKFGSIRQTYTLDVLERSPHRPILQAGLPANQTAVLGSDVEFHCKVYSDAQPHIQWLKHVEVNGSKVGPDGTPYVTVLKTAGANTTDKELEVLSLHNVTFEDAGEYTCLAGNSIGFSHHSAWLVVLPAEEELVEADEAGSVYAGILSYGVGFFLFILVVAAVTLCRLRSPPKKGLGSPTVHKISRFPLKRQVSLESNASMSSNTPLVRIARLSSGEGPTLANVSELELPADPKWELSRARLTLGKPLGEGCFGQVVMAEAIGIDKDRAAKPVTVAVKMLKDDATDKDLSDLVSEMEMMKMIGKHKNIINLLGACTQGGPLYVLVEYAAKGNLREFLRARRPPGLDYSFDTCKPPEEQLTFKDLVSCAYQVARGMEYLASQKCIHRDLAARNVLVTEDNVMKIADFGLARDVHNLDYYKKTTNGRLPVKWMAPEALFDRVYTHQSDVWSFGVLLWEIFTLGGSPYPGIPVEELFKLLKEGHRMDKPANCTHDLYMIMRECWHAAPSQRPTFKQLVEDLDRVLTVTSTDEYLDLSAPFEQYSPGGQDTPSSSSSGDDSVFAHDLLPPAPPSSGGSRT
Settings: Compound concentration 20.0 uM, Protein concentration 2.0 uM, Result type QC Liability
Answers are plain numbers, in °C.

Cc1cn(CCN2CCN(c3ccccc3-c3cc(C#N)cc(C(=O)NCCCN4CCCC4)c3)CC2)c2ccccc12
-1.2
COc1cc(C)c(S(=O)(=O)N(C)CCOCC(=O)N(C)[C@H]2CCC[C@@H](N3CCN(C)CC3)C2)c(C)c1
0.64
N#Cc1ccc(COc2ccc(Br)cc2CNCCO)cn1
0.63
CC[C@H](CO)Nc1nc(Nc2cccc(-c3ccccn3)c2)c2ncn(C(C)C)c2n1
2.78
CN1CCN(C(=O)c2ccc3cc2OCCOCCNc2ccn4ncc-3c4n2)CC1
2.23

For the 4 compounds below, give their ΔTm values.
1. Cc1c(NC(=O)c2ccc(C(C)(C)C)cc2)cccc1-c1cn(C)c(=O)c(Nc2ccc(C(=O)N3CCOCC3)cc2)n1
2. CCCCOc1c(C(=O)c2c(F)cc(C)cc2F)c[nH]c2nncc1-2
3. N#CN1CC[C@H](C(=O)Nc2nc3c(s2)CN(C(=O)CN=[N+]=[N-])CC3)C1
4. COc1nc2ccc([C@@](O)(c3ccccc3)C3CCN(C(C)=O)CC3)cc2c(Cl)c1Cc1ccc(-n2cccn2)cc1

0.54
0.71
1.09
5.87

For the 5 compounds below, give their ΔTm values.
1. C[C@H](NC(=O)c1cc(Cl)ccc1Oc1ccc(F)cc1)c1ccc(C(=O)O)cc1
2. CC1CCN(C(=O)[C@H](CCn2cccc2C#N)NS(=O)(=O)c2cccc3[nH]ccc23)CC1
3. CCOCCn1cc(C(=O)Nc2ccc(-n3nc(-c4cccnc4)cc3C(F)(F)F)cn2)ccc1=O
4. CCc1ccc(N(CC(C)C)S(=O)(=O)c2ccc(OCC3CCOCC3)c(CO)c2)cc1
5. NCc1ccc(OCCCc2sc(-c3ccc4c(c3)/C(=N/Nc3nc5ccccc5s3)CCC4)nc2C(=O)O)cc1

1: 0.47; 2: 0.35; 3: 0.41; 4: 0.5; 5: 0.58

For the 3 compounds below, give their ΔTm values.
1. CC[C@@H](CO)Nc1nc(Nc2cccc(NC(=O)C(C)(C)C)c2)ncc1F
2. COc1cc(N2CCN(C)CC2)ccc1Nc1ncc2c(n1)N(C)c1ccccc1C(=O)N2CC(F)(F)F
3. Cc1ccc(NC(=O)c2ccc3c(c2)OCCO3)cc1NC(=O)c1ccc2nc(OCCN3CCCC3)ccc2c1

1. 2.58
2. 0.22
3. 0.47

Form field: reported ΔTm of CC(C)C(=O)N1CCC(c2cn(C)c3ncc(NC(=O)c4cccc(C#N)c4)c(C(F)(F)F)c23)CC1
0.79

----------
Target: Fibroblast growth factor receptor 3 (Homo sapiens)
Conditions: Compound concentration 20.0 uM, Protein concentration 2.0 uM, Result type QC Liability
Classification by ΔTm | ranges: interval 1 (below 0.4 °C), interval 2 (0.4 °C to below 1 °C), interval 3 (1 °C or more)

COc1cc2ncnc(N[C@H](C)c3ccccc3)c2cc1OC1CCN(S(C)(=O)=O)CC1
interval 1

Pick a category. Item: Cn1cncc1-c1cn(-c2cccc(C(=O)Nc3cccc(C(F)(F)F)c3)c2)nn1
interval 1

Pick a category. Item: COc1cc2nc(C)nc(N[C@H](C)c3cc(N)cc(C(F)(F)F)c3)c2cc1O[C@H]1CCOC1
interval 2

Pick a category. Item: Cc1nc2ccc(Cl)cc2c(-c2ccccc2)c1CC(=O)O
interval 2

Pick a category. Item: CO[C@H]1C[C@@H]2CC[C@@H](C)[C@@](O)(O2)C(=O)C(=O)N2CCCC[C@H]2C(=O)O[C@H]([C@H](C)C[C@@H]2CC[C@@H](O)[C@H](OC)C2)CC(=O)[C@H](C)/C=C(\C)[C@@H](O)[C@@H](OC)C(=O)[C@H](C)C[C@H](C)/C=C/C=C/C=C/1C
interval 1

----------
Target: Peregrin (Homo sapiens)
Conditions: Compound concentration 20.0 uM, Protein concentration 2.0 uM, Result type QC Liability
For each entry below, report its ΔTm value.
Give bare numbers, in °C.

Guide cases for ΔTm, answers given:
N[C@H](C(=O)O)[C@@H]1CC(Cl)=NO1
-1.19
COc1cc(F)ccc1-c1ncnc(Nc2cccc(C[S@](C)(=N)=O)c2)n1
-1.17
C[C@@H](CN1CC[C@@]2(C)c3cccc(O)c3C[C@@H]1C2(C)C)OCc1ccccc1
-1.96
Cc1cnc(-c2cnc(NCCNc3ccc(C#N)cn3)nc2-c2ccc(Cl)cc2Cl)[nH]1
-2.19

Let us examine a further case.
Identify the measured ΔTm of CO[C@H](C)CN1CC[C@]2(C)c3cccc(O)c3C[C@H]1C2(C)C for Peregrin (Homo sapiens).
-1.37

----------
For each entry below, report its ΔTm value.
Biological target: Peregrin (Homo sapiens) (UniProt P55201)
Conditions: Compound concentration 20.0 uM, Protein concentration 2.0 uM, Result type QC Liability
One number for each entry, in °C.

Guide cases for ΔTm, answers given:
CNC(=O)c1ccc2c(c1)ncn2-c1ccc(CC(=O)OC(C)(C)C)cc1
-1.38
Nc1c(CC(=O)O)cccc1C(=O)c1ccc(Br)cc1
-2.36
CN(C)c1ccc(-c2cc3ncccc3c(OCCCCO)n2)cc1
-2.48
c1ccc2c(c1)SCc1c-2[nH]c2ccccc12
-9.42
Cc1nc2cccnc2n2c(-c3cc([C@@]4(O)CCCOC4)ccc3Cl)nnc12
-2.38
COc1ccccc1-c1cc(Nc2cccc(CS(N)(=O)=O)c2)ncn1
-0.77
COc1cc(-c2cc([C@H](O)C3CC3)n3ncnc(N)c23)ccc1CO
-2.32
NC(=O)c1ccccc1Nc1nc(-c2ccc(N3CCOCC3)cc2)cc2ncccc12
-0.11

For the 2 compounds below, give their ΔTm values.
1. CO[C@H](C)CN1CC[C@@]2(C)c3ccc(O)cc3C[C@@H]1C2(C)C
2. COc1ccc(C(=O)N[C@H](C)c2cccc(C(=O)Nc3nc4c(s3)CN(C)CC4)c2)cc1C

[-2.03, -0.23]
